# credit: patent US10196346B2

target: EGFP-HIF-1α fusion protein (Homo sapiens (Human)); experiment: Stabilization of HIF-1α in EGFP-HIF-1α-CHOhIR cell model (nuclear EGFP fluorescence imaging); conditions: CHOhIR cells stably expressing EGFP-HIF-1α; 3 h incubation; 0.03-30 μM; bipyridine 100 μM = 100% activation; read-out: Effects in stabilization of HIF-1α activity (EC50)
Metric: pEC50
Answers are plain numbers, as −log10 of the molar value.

- Entry Smiles: "COc1cccc(/C=N/NC(=O)CN(C)CCN(C)Cc2cccc3ccccc23)c1O"
  Metric: "pEC50"
  Recorded Value: 5.64

Items follow; give pEC50 for each.
1. CCOc1cccc(/C=N/NC(=O)CN(C)CCN(C)Cc2ccc(C(C)(C)C)cc2)c1O
2. CN(CCN(C)Cc1ccc(C#N)cc1)CC(=O)N/N=C/c1cc(C(C)(C)C)cc(C(C)(C)C)c1O
3. CC(C)c1ccc(CN(C)CCN(C)CC(=O)N/N=C/c2cc(C(C)(C)C)cc(C(C)(C)C)c2O)cc1
4. CN(CCN(C)Cc1cccc(C(F)(F)F)c1)CC(=O)N/N=C/c1cc(C(C)(C)C)cc(C(C)(C)C)c1O

1. 5.73
2. 5.11
3. 4.95
4. 5.28

---

target: EGFP-HIF-1α fusion protein (Homo sapiens (Human)); experiment: Stabilization of HIF-1α in EGFP-HIF-1α-CHOhIR cell model (nuclear EGFP fluorescence imaging); conditions: CHOhIR cells stably expressing EGFP-HIF-1α; 3 h incubation; 0.03-30 μM; bipyridine 100 μM = 100% activation; read-out: Effects in stabilization of HIF-1α activity (EC50)
Metric: EC50
Numeric answer plus unit only.

Answered cases to consult:
- Entry Smiles: "COc1cccc(CN(C)CCN(C)CC(=O)N/N=C/c2cc(Br)ccc2O)c1"
  Recorded Value: "7190 nM"
- Entry Smiles: "CC(C)c1ccc(CN(C)CCN(C)CC(=O)N/N=C/c2c(O)ccc3ccccc23)cc1"
  Recorded Value: "1020 nM"
- Entry Smiles: "COc1cccc(CN(C)CCN(C)CC(=O)N/N=C/c2cc(C(C)(C)C)cc(C(C)(C)C)c2O)c1"
  Recorded Value: "2770 nM"
- Entry Smiles: "CN(CCN(C)Cc1cccc2ccccc12)CC(=O)N/N=C/c1cc(C(C)(C)C)cc(C(C)(C)C)c1O"
  Recorded Value: "17800 nM"
- Entry Smiles: "CN(CCN(C)Cc1cccc(C(F)(F)F)c1)CC(=O)N/N=C/c1cccc(O)c1O"
  Recorded Value: "170 nM"

Items follow; give EC50 for each.
1. COc1cccc(/C=N/NC(=O)CN(C)CCN(C)Cc2ccc(C#N)cc2)c1O
2. CC(C)c1ccc(CN(C)CCN(C)CC(=O)N/N=C/c2cc(Br)ccc2O)cc1
3. CCOc1cccc(/C=N/NC(=O)CN(C)CCN(C)Cc2cccc3ccccc23)c1O
4. CCN(CC)c1ccc(/C=N/NC(=O)CN(C)CCN(C)Cc2cccc(OC)c2)c(O)c1

8420 nM
2280 nM
2110 nM
760 nM

Items follow; give EC50 for each.
1. CN(CCN(C)Cc1cccc2ccccc12)CC(=O)N/N=C/c1c(O)ccc2ccccc12
2. CCN(CC)c1ccc(/C=N/NC(=O)CN(C)CCN(C)Cc2cccc3ccccc23)c(O)c1
3. CCN(CC)c1ccc(/C=N/NC(=O)CN(C)CCN(C)Cc2ccc(C#N)cc2)c(O)c1
4. CCN(CC)c1ccc(/C=N/NC(=O)CN(C)CCN(C)Cc2cccc(C(F)(F)F)c2)c(O)c1
5. COc1cccc(CN(C)CCN(C)CC(=O)N/N=C/c2cccc(O)c2O)c1
6. CC(C)c1ccc(CN(C)CCN(C)CC(=O)N/N=C/c2cccc(O)c2O)cc1
7. CN(CCN(C)Cc1ccc(C#N)cc1)CC(=O)N/N=C/c1c(O)ccc2ccccc12
8. CCOc1cccc(/C=N/NC(=O)CN(C)CCN(C)Cc2ccc(C#N)cc2)c1O

["830 nM", "780 nM", "530 nM", "600 nM", "820 nM", "560 nM", "980 nM", "2770 nM"]

Items follow; give EC50 for each.
1. COc1cccc(/C=N/NC(=O)CN(C)CCN(C)Cc2ccc(C(C)(C)C)cc2)c1O
2. CCOc1cccc(/C=N/NC(=O)CN(C)CCN(C)Cc2ccc(C(C)C)cc2)c1O

["2760 nM", "800 nM"]

Which measured EC50 value corresponds to "CCN(CC)c1ccc(/C=N/NC(=O)CN(C)CCCN(C)Cc2ccc(C(C)(C)C)cc2)c(O)c1" ? 130 nM
